# EXPERIMENTAL SYSTEM: T1, AjKissR2 (Apostichopus japonicus)
# T1 chain: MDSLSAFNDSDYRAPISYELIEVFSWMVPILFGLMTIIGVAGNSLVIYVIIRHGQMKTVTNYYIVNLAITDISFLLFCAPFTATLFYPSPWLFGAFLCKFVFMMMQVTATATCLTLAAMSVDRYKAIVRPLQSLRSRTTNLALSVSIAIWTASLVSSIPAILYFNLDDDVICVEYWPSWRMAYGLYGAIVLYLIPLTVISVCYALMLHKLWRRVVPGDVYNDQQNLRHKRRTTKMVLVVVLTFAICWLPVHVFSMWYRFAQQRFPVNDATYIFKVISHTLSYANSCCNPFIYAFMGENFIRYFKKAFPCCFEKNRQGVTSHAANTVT
# TEST PROTOCOL: FACS; competition with 1.0 uM FITC-AjKiss1a
No end group written: not given here.
MEASURED QUANTITY: pIC50
pIC50 field: float, defined as -log10 of concentration (mol/L).

Dear colleague, please send me the reported pIC50 for SAVKNKNKSRARPPLLPF-NH2 [AjKiss1b] when you can.
5.90
